Parameter: Emax. Scope: all listed entries.
- targetOrTestSystem: SIRT1 (Homo sapiens)
- Sequence (Q96EB6 1-747): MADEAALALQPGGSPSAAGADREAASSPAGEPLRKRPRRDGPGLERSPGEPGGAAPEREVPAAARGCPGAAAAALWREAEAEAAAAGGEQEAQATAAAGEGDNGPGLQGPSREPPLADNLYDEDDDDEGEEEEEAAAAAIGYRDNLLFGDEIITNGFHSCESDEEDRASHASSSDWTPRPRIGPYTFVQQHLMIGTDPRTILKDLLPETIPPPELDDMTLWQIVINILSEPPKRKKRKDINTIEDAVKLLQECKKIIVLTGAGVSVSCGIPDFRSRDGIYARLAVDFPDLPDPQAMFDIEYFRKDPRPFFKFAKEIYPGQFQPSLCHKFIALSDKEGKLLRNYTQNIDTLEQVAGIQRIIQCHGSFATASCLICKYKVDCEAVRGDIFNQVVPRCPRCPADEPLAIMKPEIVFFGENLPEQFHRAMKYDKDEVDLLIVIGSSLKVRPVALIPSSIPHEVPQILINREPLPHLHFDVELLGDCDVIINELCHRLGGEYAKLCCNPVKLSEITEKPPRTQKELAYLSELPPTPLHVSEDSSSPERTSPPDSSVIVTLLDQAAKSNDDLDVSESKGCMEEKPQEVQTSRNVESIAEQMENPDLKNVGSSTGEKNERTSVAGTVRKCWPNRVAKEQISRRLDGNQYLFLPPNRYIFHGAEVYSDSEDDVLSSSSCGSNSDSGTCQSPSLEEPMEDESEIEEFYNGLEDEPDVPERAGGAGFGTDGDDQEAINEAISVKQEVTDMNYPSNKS
- assayExplanation: Mass spectrometry based assay to identify modulators of SIRT1 activity (deacetylation of p53-based acetylated peptide substrate)
- Assay type: biochemical
- testSettings: 25 min, SIRT1 activation, read-out: % FOLD ACT. (percent maximum fold activation)

Use these answered entries as a reference point.
O=C(Nc1ccncc1)N1CCOc2cnc(-c3cccc(N4CCCC4)c3)nc21    > 200%
Cc1cc(NC(=O)N2CCOc3c(C)cc(-c4cccc(Cl)c4)nc32)cc(C)n1    > 200%
O=C(Nc1nccs1)N1CCOc2ccc(-c3cccc(C(F)(F)F)c3)nc21    > 200%

# ---- query molecule ----
IN: Fill in the blank: the reported Emax of CN1C(=O)CN(C(=O)NC2CCOC2=O)c2nc(-c3cccc(C(F)(F)F)c3)ccc21 (stereo not shown) is ____.
OUT: ≤ 200%

###

- targetOrTestSystem: SIRT1 (Homo sapiens)
- assayExplanation: Mass spectrometry based assay to identify modulators of SIRT1 activity (deacetylation of p53-based acetylated peptide substrate)
- Format: biochemical
- testSettings: 25 min, SIRT1 activation, read-out: % FOLD ACT. (percent maximum fold activation)
Parameter: Emax. Scope: all listed entries.

Use these answered entries as a reference point.
Cc1cncc(NC(=O)N2CCOc3ccc(-c4cccc(C(F)(F)F)c4)nc32)c1 [Compound 551]    > 200%
O=C1CCCN(C(=O)Nc2ccncc2F)c2nc(-c3cccc(Cl)c3)ccc21 [Compound 767]    ≤ 200%
O=C(Nc1ccnc(OCC(O)CO)n1)N1CCc2ccc(-c3cccc(C(F)(F)F)c3)nc21 (centres unmarked) [Compound 874]    > 200%
O=C(Nc1ccncn1)N1CCCOc2ccc(-c3cccc(N4CCCC4)c3)nc21 [Compound 627]    > 200%
O=C(Nc1ccncc1F)N1CCOc2cnc(-c3cccc(C(F)(F)F)c3)nc21 [Compound 716]    > 200%
Cc1cc(-c2ccc3c(n2)N(C(=O)Nc2ccncn2)CCCO3)ccn1 [Compound 674]    > 200%
CC1CCN(C(=O)Nc2ccncc2)c2nc(-c3cccc(C(F)(F)F)c3)ccc21 (centres unmarked) [Compound 786]    > 200%
O=C(Nc1cncc(OCC(O)CO)n1)N1CCCOc2ccc(-c3cccc(Cl)c3)nc21 (centres unmarked) [Compound 858]    > 200%
Cc1cc(-c2cccc(C(F)(F)F)c2)nc2c1OCCN2C(=O)Nc1ccncc1 [Compound 662]    > 200%
O=C(Nc1ccncc1)N1CCCc2ccc(-c3cccc(F)c3)nc21 [Compound 648]    > 200%

IN: Fill in the blank: the reported Emax of O=C(Nc1ccccn1)N1CCC(F)(F)c2ccc(-c3cccc(C(F)(F)F)c3)nc21 [Compound 814] is ____.
OUT: ≤ 200%

IN: Similarly, O=C(Nc1ccncn1)N1CCOc2ccc(-c3cccnc3)nc21 [Compound 516] ?
OUT: ≤ 200%

IN: Similarly, O=C1NCc2cccc(NC(=O)N3CCCOc4ccc(-c5cccc(Cl)c5)nc43)c21 [Compound 885] ?
OUT: ≤ 200%

IN: Similarly, Cn1cc(NC(=O)N2CCCOc3ccc(-c4cccc(Cl)c4)nc32)cn1 [Compound 708] ?
OUT: > 200%

IN: Similarly, CC1(C)CCN(C(=O)Nc2ccncn2)c2nc(-c3cccc(C(F)(F)F)c3)ccc21 [Compound 838] ?
OUT: > 200%

IN: Similarly, Cc1cnccc1NC(=O)N1CCC(F)(F)c2ccc(-c3cccc(C(F)(F)F)c3)nc21 [Compound 744] ?
OUT: ≤ 200%

IN: Similarly, O=C(Nc1ccnc(N2CCC2)c1)N1CCCOc2ccc(-c3cccc(N4CCCC4)c3)nc21 [Compound 611] ?
OUT: > 200%
